TEST SYSTEM: human TYK2 kinase domain (JH1) (Homo sapiens)
Construct: recombinantly generated catalytic kinase (also known as JH1) domain of human JAK1, JAK2, JAK3 and TYK2
Sequence (P29597 897-1176 limits assumed): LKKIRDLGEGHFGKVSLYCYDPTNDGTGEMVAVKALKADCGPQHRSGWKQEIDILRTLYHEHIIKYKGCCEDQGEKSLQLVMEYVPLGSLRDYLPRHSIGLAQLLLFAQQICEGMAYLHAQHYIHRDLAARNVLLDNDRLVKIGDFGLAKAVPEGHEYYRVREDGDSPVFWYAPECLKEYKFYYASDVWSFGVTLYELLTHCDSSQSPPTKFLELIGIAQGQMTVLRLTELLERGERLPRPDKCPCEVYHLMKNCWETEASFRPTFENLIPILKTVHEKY
METHOD DESCRIPTION: JH1 biochemical assay for TYK2 (ADP-Glo kinase assay, recombinant JH1 catalytic domain, JAK3-974 peptide, 10 μM ATP)
CONDITION SET: TYK2 JH1, ADP-Glo
pIC50: −log10 of the molar value. Where a name gives a salt, the structure may show the parent alone.
REPORTED ENDPOINT: pIC50

// known answers, use as guide
INSERT INTO results (molecule, test_system, reported) VALUES
  ('C[C@@H]1CN(c2nc(-c3cnn(C4COC4)c3)cc3ncsc23)C(=O)[C@]1(C#N)C1CC1', 'human TYK2 kinase domain (JH1) (Homo sapiens)', '> 8.30'),
  ('C[C@@H]1OC[C@@H]1n1cc(-c2cn3ncc(F)c3c(N3C[C@@H](C)[C@@](C#N)(C4CC4)C3=O)n2)cn1 (relative stereo)', 'human TYK2 kinase domain (JH1) (Homo sapiens)', '> 8.30'),
  ('C[C@@H]1CN(c2nc(-c3ccnc(F)c3)cn3nccc23)C(=O)[C@]1(C#N)C1CC1 [Example 237, trifluoroacetate]', 'human TYK2 kinase domain (JH1) (Homo sapiens)', '7.70 to 8.30'),
  ('C[C@@H]1CN(c2nc(-c3cccc(F)n3)cn3nccc23)C(=O)[C@]1(C#N)C1CC1 [Example 255, trifluoroacetate]', 'human TYK2 kinase domain (JH1) (Homo sapiens)', '7.30 to 7.70');

Now look at this one.
Noted for C[C@@H]1CN(c2nc(-c3cnn(C4COC4)c3)cn3nccc23)C(=O)[C@]1(C#N)C1CC1 : its pIC50 reads > 8.30
